- PROCEDURE DETAILS: Example 4: dose response of FKBP constructs 160-255, Ec50, Ec90 and fold change (raw and normalized to mCherry)
- Type: cell-based
- CONDITIONS USED: FKBP constructs 160-255; not normalized; read-out: EC90
Catalogue of log10(EC90) values
OBSERVATION TYPE: log10(EC90) (log10 of the value in nM)

MOLECULE | log10(EC90)
FKBP-220: FKBP13 DRD-AcGFP construct of Table 10 (protein, Description of sequence: Construct Name: FKBP-220; Mutation(s): Q72R Q84E A117W V85R DRD T25G) HCPIKSRKGDVLHMHYTGKLEDGGEFDSSLPRNQPFVFSLGTGERIKGWDQGLLGMCEGEKRKLVIPSELGYGERGWPPKIPGGATLVFEVELLKIER | 2.19
FKBP-165 (protein, Description of sequence: Construct Name: FKBP-165; Mutation(s): Q72R Q84E A117W DRD M54A P119V V85R) HCPIKSRKGDVLHAHYTGKLEDGTEFDSSLPRNQPFVFSLGTGERIKGWDQGLLGMCEGEKRKLVIPSELGYGERGWPVKIPGGATLVFEVELLKIER | 2.99
FKBP-234 (protein, Description of sequence: Construct Name: FKBP-234; Mutation(s): Q72R Q84E A117W V85R DRD D90T) HCPIKSRKGDVLHMHYTGKLEDGTEFDSSLPRNQPFVFSLGTGERIKGWTQGLLGMCEGEKRKLVIPSELGYGERGWPPKIPGGATLVFEVELLKIER | 3.94
FKBP-231 (protein, Description of sequence: Construct Name: FKBP-231; Mutation(s): Q72R Q84E A117W V85R DRD G63M) HCPIKSRKGDVLHMHYTGKLEDMTEFDSSLPRNQPFVFSLGTGERIKGWDQGLLGMCEGEKRKLVIPSELGYGERGWPPKIPGGATLVFEVELLKIER | 2.60
FKBP-248 (protein, Description of sequence: Construct Name: FKBP-248; Mutation(s): Q72R Q84E A117W DRD S68D) HCPIKSRKGDVLHMHYTGKLEDGTEFDDSLPRNQPFVFSLGTGEVIKGWDQGLLGMCEGEKRKLVIPSELGYGERGWPPKIPGGATLVFEVELLKIER | 3.26
FKBP-192: FKBP13 DRD-AcGFP construct of Table 10 (protein, Description of sequence: Construct Name: FKBP-192; Mutation(s): Q72R Q84E A117W V85R DRD P75L) HCPIKSRKGDVLHMHYTGKLEDGTEFDSSLPRNQLFVFSLGTGERIKGWDQGLLGMCEGEKRKLVIPSELGYGERGWPPKIPGGATLVFEVELLKIER | 2.36
FKBP-186 (protein, Description of sequence: Construct Name: FKBP-186; Mutation(s): Q72R Q84E A117W V85R DRD M54A G116E) HCPIKSRKGDVLHAHYTGKLEDGTEFDSSLPRNQPFVFSLGTGERIKGWDQGLLGMCEGEKRKLVIPSELGYGEREWPPKIPGGATLVFEVELLKIER | 4.25
FKBP-163 (protein, Description of sequence: Construct Name: FKBP-163; Mutation(s): Q72R Q84E A117W DRD M54A M96V V85R) HCPIKSRKGDVLHAHYTGKLEDGTEFDSSLPRNQPFVFSLGTGERIKGWDQGLLGVCEGEKRKLVIPSELGYGERGWPPKIPGGATLVFEVELLKIER | 2.88
FKBP-215: combinatorial FKBP13 mutant construct of Table 10, carries M54A (protein, Description of sequence: Construct Name: FKBP-215; Mutation(s): Q72R Q84G A117W V85R DRD P43R M54A K135Y) HCRIKSRKGDVLHAHYTGKLEDGTEFDSSLPRNQPFVFSLGTGGRIKGWDQGLLGMCEGEKRKLVIPSELGYGERGWPPKIPGGATLVFEVELLYIER | 2.59
FKBP-246 (protein, Description of sequence: Construct Name: FKBP-246; Mutation(s): Q72R Q84E A117W V85R DRD S69H) HCPIKSRKGDVLHMHYTGKLEDGTEFDSHLPRNQPFVFSLGTGERIKGWDQGLLGMCEGEKRKLVIPSELGYGERGWPPKIPGGATLVFEVELLKIER | 3.18
FKBP-204 (protein, Description of sequence: Construct Name: FKBP-204; Mutation(s): Q72R Q84E A117W V85R DRD M54A D90A) HCPIKSRKGDVLHAHYTGKLEDGTEFDSSLPRNQPFVFSLGTGERIKGWAQGLLGMCEGEKRKLVIPSELGYGERGWPPKIPGGATLVFEVELLKIER | 4.18
